Attribute: Log[IC50±] (μ)
system-name: MOR
assay-method-text: Radioligand binding assay at μ opioid receptor
conditions-used: log IC50 ± error
Non-standard residues stand in square brackets, D forms with d. Residues, ends and D or L forms follow the SMILES beside them. *: point of attachment. NH(3,5-(CF3)2-benzyl) = FC(F)(F)c1cc(CN*)cc(C(F)(F)F)c1; NMeF = CN[C@@H](Cc1ccccc1)C(=O)O
measured-property: Log[IC50±] (μ)

CC(C)C[C@H](NC(=O)[C@@H]1CCCN1C(=O)[C@H](Cc1ccccc1)N(C)C(=O)CNC(=O)[C@@H](C)NC(=O)[C@@H](N)Cc1ccc(O)cc1)C(=O)N[C@@H](Cc1c[nH]c2ccccc12)C(=O)NCc1cc(C(F)(F)F)cc(C(F)(F)F)c1    −7.05 ± 0.04
Cc1cc(O)cc(C)c1C[C@H](N)C(=O)N[C@H](C)C(=O)NCC(=O)N(C)[C@@H](Cc1ccc(F)cc1)C(=O)N1CCC[C@H]1C(=O)N[C@@H](CC(C)C)C(=O)N[C@@H](Cc1c[nH]c2ccccc12)C(=O)NCc1cc(C(F)(F)F)cc(C(F)(F)F)c1    −8.55 ± 0.18
Cc1cc(O)cc(C)c1C[C@H](N)C(=O)N[C@H](C)C(=O)NCC(=O)N(C)[C@@H](Cc1ccccc1)C(=O)N1CCC[C@H]1C(=O)N[C@@H](CC(C)C)C(=O)N[C@@H](Cc1c[nH]c2ccccc12)C(=O)NCc1cc(C(F)(F)F)cc(C(F)(F)F)c1    −8.78 ± 0.05
CC(C)C[C@H](NC(=O)[C@@H]1CCCN1C(=O)CNC(=O)[C@H](Cc1ccccc1)N(C)C(=O)CNC(=O)[C@@H](C)NC(=O)[C@@H](N)Cc1ccc(O)cc1)C(=O)N[C@@H](Cc1c[nH]c2ccccc12)C(=O)NCc1cc(C(F)(F)F)cc(C(F)(F)F)c1 [AKG113] (H-Y[dA]G[NMeF]GPLW-{NH(3,5-(CF3)2-benzyl)})    −8.23 ± 0.03

====

Measured Ki^hNK1/Ki^rNK1 of individual entries
system-name: hNK1 (Homo sapiens, UniProt P25103)
Construct: expressed in transfected cells; host or cells: CHO
Sequence (P25103 whole entry): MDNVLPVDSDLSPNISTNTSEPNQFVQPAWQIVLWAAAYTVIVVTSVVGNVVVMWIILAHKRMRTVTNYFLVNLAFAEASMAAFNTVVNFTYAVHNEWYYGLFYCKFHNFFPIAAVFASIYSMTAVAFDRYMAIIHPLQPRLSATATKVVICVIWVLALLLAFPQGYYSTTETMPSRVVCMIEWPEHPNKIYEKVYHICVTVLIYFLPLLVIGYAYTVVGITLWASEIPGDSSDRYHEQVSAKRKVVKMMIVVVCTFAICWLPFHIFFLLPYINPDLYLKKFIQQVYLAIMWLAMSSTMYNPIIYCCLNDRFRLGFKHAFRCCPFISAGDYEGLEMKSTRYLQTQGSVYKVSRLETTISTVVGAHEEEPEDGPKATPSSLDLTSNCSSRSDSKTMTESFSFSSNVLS
assay-method-text: hNK1/CHO cell membrane radioligand binding assay ([3H]SP)
conditions-used: ratio human/rat NK1
measured-property: Ki^hNK1/Ki^rNK1

Cc1cc(O)cc(C)c1C[C@H](N)C(=O)N(C)[C@H](C)C(=O)NCC(=O)N[C@@H](Cc1ccccc1)C(=O)N1CCC[C@H]1C(=O)N[C@@H](CC(C)C)C(=O)N[C@@H](Cc1c[nH]c2ccccc12)C(=O)NCc1cc(C(F)(F)F)cc(C(F)(F)F)c1 [AKG181]    1/5
Cc1cc(O)cc(C)c1C[C@H](N)C(=O)N(C)[C@H](C)C(=O)N(C)CC(=O)N[C@@H](Cc1ccccc1)C(=O)N1CCC[C@H]1C(=O)N[C@@H](CC(C)C)C(=O)N[C@@H](Cc1c[nH]c2ccccc12)C(=O)NCc1cc(C(F)(F)F)cc(C(F)(F)F)c1 [AKG183]    1/7

====

system-name: MOR
assay-method-text: Radioligand binding assay at μ opioid receptor
Experimental: Binding affinities of these ligands were measured on radioligand binding assays. […] ([43]).
Non-standard residues stand in square brackets, D forms with d. Residues, ends and D or L forms follow the SMILES beside them. *: point of attachment. NH(3,5-(CF3)2-benzyl) = FC(F)(F)c1cc(CN*)cc(C(F)(F)F)c1; Phe(4-F) = N[C@@H](Cc1ccc(F)cc1)C(=O)O
Readings of Ki for the listed molecules
measured-property: Ki (nM)

CC(C)C[C@H](NC(=O)[C@@H]1CCCN1C(=O)[C@H](CCC(N)=O)NC(=O)[C@H](Cc1ccc(F)cc1)N(C)C(=O)CNC(=O)[C@@H](C)NC(=O)[C@@H](N)Cc1ccc(O)cc1)C(=O)N[C@@H](Cc1c[nH]c2ccccc12)C(=O)NCc1cc(C(F)(F)F)cc(C(F)(F)F)c1    2
CC(C)C[C@H](NC(=O)[C@@H]1CCCN1C(=O)c1ccc(CNC(=O)[C@H](Cc2ccccc2)N(C)C(=O)CNC(=O)[C@@H](C)NC(=O)[C@@H](N)Cc2ccc(O)cc2)cc1)C(=O)N[C@@H](Cc1c[nH]c2ccccc12)C(=O)NCc1cc(C(F)(F)F)cc(C(F)(F)F)c1    5
CC(C)C[C@H](NC(=O)[C@@H]1CCCN1C(=O)CNC(=O)[C@H](Cc1ccc(F)cc1)NC(=O)CNC(=O)[C@@H](C)NC(=O)[C@@H](N)Cc1ccc(O)cc1)C(=O)N[C@@H](Cc1c[nH]c2ccccc12)C(=O)NCc1cc(C(F)(F)F)cc(C(F)(F)F)c1 [AKG130] (H-Y[dA]G[Phe(4-F)]GPLW-{NH(3,5-(CF3)2-benzyl)})    9

====

Examples of compounds with documented Ki^hNK1/Ki^rNK1 follow.
system-name: hNK1 (Homo sapiens, UniProt P25103)
Construct: expressed in transfected cells; host or cells: CHO
assay-method-text: hNK1/CHO cell membrane radioligand binding assay ([3H]SP)
conditions-used: ratio human/rat NK1
measured-property: Ki^hNK1/Ki^rNK1

Cc1cc(O)cc(C)c1C[C@H](N)C(=O)N[C@H](C)C(=O)N(C)CC(=O)N[C@@H](Cc1ccccc1)C(=O)N1CCC[C@H]1C(=O)N[C@@H](CC(C)C)C(=O)N[C@@H](Cc1c[nH]c2ccccc12)C(=O)NCc1cc(C(F)(F)F)cc(C(F)(F)F)c1 [AKG180]    1/6
CSCC[C@H](NC(=O)[C@H](Cc1ccccc1)N(C)C(=O)CNC(=O)[C@@H](C)NC(=O)[C@@H](N)Cc1ccc(O)cc1)C(=O)N1CCC[C@H]1C(=O)N[C@@H](CC(C)C)C(=O)N[C@@H](Cc1c[nH]c2ccccc12)C(=O)NCc1cc(C(F)(F)F)cc(C(F)(F)F)c1 [AKG106]    1/7
CC(C)C[C@H](NC(=O)[C@@H]1CCCN1C(=O)CCCCCNC(=O)[C@H](Cc1ccccc1)N(C)C(=O)CNC(=O)[C@@H](C)NC(=O)[C@@H](N)Cc1ccc(O)cc1)C(=O)N[C@@H](Cc1c[nH]c2ccccc12)C(=O)NCc1cc(C(F)(F)F)cc(C(F)(F)F)c1 [AKG124]    1/36
Cc1cc(O)cc(C)c1C[C@H](N)C(=O)N[C@H](C)C(=O)NCC(=O)N(C)[C@@H](Cc1ccccc1)C(=O)N[C@@H](CCC(N)=O)C(=O)N1CCC[C@H]1C(=O)N[C@@H](CC(C)C)C(=O)N[C@@H](Cc1c[nH]c2ccccc12)C(=O)NCc1cc(C(F)(F)F)cc(C(F)(F)F)c1 [AKG141]    1/10
Cc1cc(O)cc(C)c1C[C@H](N)C(=O)N(C)[C@H](C)C(=O)N(C)CC(=O)N(C)[C@@H](Cc1ccccc1)C(=O)N1CCC[C@H]1C(=O)N[C@@H](CC(C)C)C(=O)N[C@@H](Cc1c[nH]c2ccccc12)C(=O)NCc1cc(C(F)(F)F)cc(C(F)(F)F)c1 [AKG185]    1/21
Cc1cc(O)cc(C)c1C[C@H](N)C(=O)N(C)[C@H](C)C(=O)NCC(=O)N(C)[C@@H](Cc1ccccc1)C(=O)N1CCC[C@H]1C(=O)N[C@@H](CC(C)C)C(=O)N[C@@H](Cc1c[nH]c2ccccc12)C(=O)NCc1cc(C(F)(F)F)cc(C(F)(F)F)c1 [AKG184]    1/40

====

Reported values of Ki for individual entries
system-name: DOR (Homo sapiens, UniProt P41143)
Sequence (P41143 whole entry): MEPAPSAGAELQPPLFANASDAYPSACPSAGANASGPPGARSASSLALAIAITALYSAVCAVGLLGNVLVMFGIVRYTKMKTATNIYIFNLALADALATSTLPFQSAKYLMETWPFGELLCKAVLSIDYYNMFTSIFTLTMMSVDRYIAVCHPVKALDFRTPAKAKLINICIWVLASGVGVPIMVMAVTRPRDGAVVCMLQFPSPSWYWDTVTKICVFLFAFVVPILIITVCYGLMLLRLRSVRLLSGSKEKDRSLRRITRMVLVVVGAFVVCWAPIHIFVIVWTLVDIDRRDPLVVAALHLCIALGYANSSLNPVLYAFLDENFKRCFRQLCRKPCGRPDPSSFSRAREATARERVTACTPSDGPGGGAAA
assay-method-text: Radioligand binding assay at δ opioid receptor
conditions-used: Ki^δ (nM)
Protocol: Binding affinities of these ligands were measured on radioligand binding assays. […] ([43]).
Non-standard residues stand in square brackets, D forms with d. Residues, ends and D or L forms follow the SMILES beside them. *: point of attachment. NH(3,5-(CF3)2-benzyl) = FC(F)(F)c1cc(CN*)cc(C(F)(F)F)c1; Phe(4-F) = N[C@@H](Cc1ccc(F)cc1)C(=O)O
measured-property: Ki (nM)

CC(C)C[C@H](NC(=O)[C@@H]1CCCN1C(=O)Cc1ccc(NC(=O)[C@H](Cc2ccccc2)N(C)C(=O)CNC(=O)[C@@H](C)NC(=O)[C@@H](N)Cc2ccc(O)cc2)cc1)C(=O)N[C@@H](Cc1c[nH]c2ccccc12)C(=O)NCc1cc(C(F)(F)F)cc(C(F)(F)F)c1    70
CC(C)C[C@H](NC(=O)[C@@H]1CCCN1C(=O)CNC(=O)[C@H](Cc1ccc(F)cc1)NC(=O)CNC(=O)[C@@H](C)NC(=O)[C@@H](N)Cc1ccc(O)cc1)C(=O)N[C@@H](Cc1c[nH]c2ccccc12)C(=O)NCc1cc(C(F)(F)F)cc(C(F)(F)F)c1 [AKG130] (H-Y[dA]G[Phe(4-F)]GPLW-{NH(3,5-(CF3)2-benzyl)})    5
